Quick reference: Population Pyknosed Nuclei (%) of the listed items.
# Tested on: HEK-293T
# protocol-details: Multiplex assay against HEK293T
# Type: toxicity, cell-based
# experimental-conditions: human, 48 h, 1 µM, compound concentration 1 uM, replicate 1

compound: c1cc(OCCCN2CCCCC2)ccc1CN1CCCCC1
Population Pyknosed Nuclei (%): 5
--
compound: COc1cc(NC(=O)CCN2CCC(OC(=O)Nc3ccccc3-c3ccccc3)CC2)c(Cl)cc1CNC[C@H](O)c1ccc(O)c2[nH]c(=O)ccc12
Population Pyknosed Nuclei (%): 8
--
compound: COc1cc(C(=O)N(CCCc2ccccc2)Cc2ccc(CC(=O)O)cc2)cc(OC)c1C
Population Pyknosed Nuclei (%): 9
--
compound: CSc1ccccc1N1CCN(CCCCCC(=O)NC2CCCc3ccccc32)CC1.Cl (stereo not given)
Population Pyknosed Nuclei (%): 10
--
compound: Cc1ccc(C(C)(O)c2nc3ccccc3s2)c(C)c1 (stereo not given)
Population Pyknosed Nuclei (%): 5
--
compound: CC1(COc2ccc3c(c2)ncn3-c2ccc3cccc(N4CCC(N)CC4)c3n2)COC1
Population Pyknosed Nuclei (%): 7
--
compound: Cc1ccccc1C(=O)Nc1ccc(C(=O)N2CCCC(N(C)C)c3ccccc32)cc1.Cl (stereo not given)
Population Pyknosed Nuclei (%): 8
--
compound: Cc1ccc(-c2ccc(F)cc2COc2ccc(CCC(=O)O)cc2)cc1
Population Pyknosed Nuclei (%): 5
--
compound: Cc1ccc(/C(=C\CN2CCCC2)c2ccccn2)cc1
Population Pyknosed Nuclei (%): 6
--
compound: CCCC(CCC)C(=O)O
Population Pyknosed Nuclei (%): 6
